# Protocol summary: DTX concentration in plasma and tissues of TxR tumor bearing mice (LC/MS/MS)
# Assay type: in vivo, ICR-NOD/SCID mice
# Particulars: ICR-NOD/SCID, mouse, liver, iv, 20 mg/kg
# Method: On Day 14, mice were sacrificed two hours post drug administration. Blood samples were collected by cardiac puncture followed by centrifugation at 5000 rpm for 3 min for obtaining the plasma. Brain, lung, liver, kidney and tumor were collected and weighed. About 100 mg of each tissue samples were carefully weighed and homogenized after being spiked with 300 µl of formic acid (0.2%, v/v). […]
Recorded metric: concentration at 2 h (ng/g)
Please reply with the bare figure in ng/g and do not write the unit itself.

So what's the measured concentration at 2 h for this one? `CC(=O)O[C@@]12CO[C@@H]1C[C@H](O)[C@@]1(C)C(=O)[C@H](O)C3=C(C)[C@@H](OC(=O)[C@H](O)[C@@H](NC(=O)OC(C)(C)C)c4ccccc4)C[C@@](O)([C@@H](OC(=O)c4ccccc4)[C@H]21)C3(C)C`
1080
